# Tested on: RARb:RXRa (NR concentration 270 nM, RXRa partner concentration 90 nM)
# runDescription: PBM binding z-score (relative to random genomic background probes); higher = stronger binding; sequences stand for … in GC…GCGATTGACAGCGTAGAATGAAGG
Give measured PBM binding z-score for each item. Keep answers brief.

Exercise: So what does the record say about PBM binding z-score for CAAACTCGGTCAAGAGGTCAAAGTCCGCTTCCCG ?
Solution: 5.01

Exercise: So what does the record say about PBM binding z-score for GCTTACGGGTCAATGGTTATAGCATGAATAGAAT ?
Solution: 3.43

Exercise: So what does the record say about PBM binding z-score for AGAATGAGGTTACCAAAGATCAGGGTAACGCTTG ?
Solution: 2.2

Exercise: So what does the record say about PBM binding z-score for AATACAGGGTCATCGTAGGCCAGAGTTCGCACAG ?
Solution: 4.33

Exercise: So what does the record say about PBM binding z-score for CCGACTGGGGCATAAGGTTACCATAAGCCAGCCC ?
Solution: 1.66

Exercise: So what does the record say about PBM binding z-score for GCTTACGGGACAAAGGTTATAGCATGAATAGAAT ?
Solution: 1.81

Exercise: So what does the record say about PBM binding z-score for CCTAGCAGGCCAATCTGGGTCACTGAAGGCTTGA ?
Solution: 1.64

Exercise: So what does the record say about PBM binding z-score for CCTAGAAGGCCAATCTGGGTCACTCAAGGCTTGA ?
Solution: 2.4

Exercise: So what does the record say about PBM binding z-score for CTACCAAGGTGAACAAGGTCGTTGCTTACTATTC ?
Solution: 2.23

Exercise: So what does the record say about PBM binding z-score for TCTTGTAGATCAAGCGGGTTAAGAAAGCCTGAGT ?
Solution: 0.093

Exercise: So what does the record say about PBM binding z-score for CGAACTAGGTCATTGACAGTACAGTGAATAGTAA ?
Solution: 3.67

Exercise: So what does the record say about PBM binding z-score for TATACAGAGTCAAAGGCCAGAGTACGAATGTCGA ?
Solution: 1.19

Exercise: So what does the record say about PBM binding z-score for ACTATTAGTTGAGACGAGGGCAACTGATAGGTTG ?
Solution: 1.16

Exercise: So what does the record say about PBM binding z-score for CGTCCAAGGTCAGAGAGATCAGTGAATGCCGAGT ?
Solution: 4.62

Exercise: So what does the record say about PBM binding z-score for TCGAGTAAGTTAGTCGGGGCATTCAGCCAACATA ?
Solution: -0.272

Exercise: So what does the record say about PBM binding z-score for ATCGAAAGATCGAAGGTGAGTATACCCACCCGAA ?
Solution: 0.215

Exercise: So what does the record say about PBM binding z-score for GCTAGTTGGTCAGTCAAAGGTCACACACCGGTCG ?
Solution: 4.36

Exercise: So what does the record say about PBM binding z-score for CCTCGGAGGACAGAAGGTCAGAGGTGTCCGCTTT ?
Solution: 3.32

Exercise: So what does the record say about PBM binding z-score for CGTCCAGGGTCAATGCTAGGTCAGTGAAAGCATT ?
Solution: 4.82

Exercise: So what does the record say about PBM binding z-score for CGAACTAGGTCAGAACAGGACTGTGAAGGATGAT ?
Solution: 2.71

Exercise: So what does the record say about PBM binding z-score for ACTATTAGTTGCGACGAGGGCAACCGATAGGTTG ?
Solution: 0.852

Exercise: So what does the record say about PBM binding z-score for GTACCAAGGTGAATAGGCCGTTGATGAGTAGGCG ?
Solution: 1.36

Exercise: So what does the record say about PBM binding z-score for TCTTGTAGATCAGCAGGATAAGAAAGCTGGCCAA ?
Solution: -0.505

Exercise: So what does the record say about PBM binding z-score for ATATGTAGGTTAGCTGGGGTCATGCAGACTAGGC ?
Solution: 3.44

Exercise: So what does the record say about PBM binding z-score for TCAGACAGGTGATGGTAACTCAGGTACGCAGTCG ?
Solution: 0.566

Exercise: So what does the record say about PBM binding z-score for TGATATAGGTAAATGCTAGGTGAAAGTCCGATCT ?
Solution: 0.212

Exercise: So what does the record say about PBM binding z-score for CCTACTGGGCCAAAAGGGTCATTGATGCCGATAA ?
Solution: 2.74

Exercise: So what does the record say about PBM binding z-score for CCTTACGGGTCACTGACAGGTTATAGCATTTGGA ?
Solution: 4.02

Exercise: So what does the record say about PBM binding z-score for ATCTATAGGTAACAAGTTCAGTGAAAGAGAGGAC ?
Solution: 1.72

Exercise: So what does the record say about PBM binding z-score for ATCGAAAGGTCGACGAGGTGAGTATCCACCGTTT ?
Solution: 3.84

Exercise: So what does the record say about PBM binding z-score for ATATGTAGGTTAGCTGGGGTCTTTCAGACTAGGC ?
Solution: 0.946

Exercise: So what does the record say about PBM binding z-score for ATCTCTAGGTAACAAGATCAGTGAAAGAGAGGAC ?
Solution: 0.327

Exercise: So what does the record say about PBM binding z-score for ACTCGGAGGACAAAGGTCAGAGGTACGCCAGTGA ?
Solution: 4.43

Exercise: So what does the record say about PBM binding z-score for TAGCCTAGGTAATGGGCCAGTATACCACGCGAAC ?
Solution: -0.295

Exercise: So what does the record say about PBM binding z-score for TCTATTTGTTGATTAGGGCAACCGAAACAGCGGA ?
Solution: 1.09

Exercise: So what does the record say about PBM binding z-score for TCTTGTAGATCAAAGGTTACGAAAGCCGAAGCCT ?
Solution: 2.14

Exercise: So what does the record say about PBM binding z-score for ATCTCTAGGTAACCAACTTCAGTGAATGCCGAAC ?
Solution: 0.248

Exercise: So what does the record say about PBM binding z-score for CAGCCTAGGTCAGAGCCAGTATAGGAGGAACGTT ?
Solution: 3.08

Exercise: So what does the record say about PBM binding z-score for CCTACTGGGCTACGAAAGGTCATTGATTCAGTGA ?
Solution: 3.88

Exercise: So what does the record say about PBM binding z-score for ATATGTAGGTTACATCCGTGTCATTCAGGCTATG ?
Solution: 1.28

Exercise: So what does the record say about PBM binding z-score for TCTTGTCGATCAGCAGGTTAAGAAAGCTGGCCAA ?
Solution: 0.466

Exercise: So what does the record say about PBM binding z-score for CTACCAAGGTGAACACGGTCGTTGATTACTATTC ?
Solution: 1.88

Exercise: So what does the record say about PBM binding z-score for ATCTCTAGGTAAAGATAGTTCAGTGACTGCAAAT ?
Solution: 0.693

Exercise: So what does the record say about PBM binding z-score for CCTCGGAGGACAGAAGGTCAGTGCTGTCCGCTTT ?
Solution: 3.28

Exercise: So what does the record say about PBM binding z-score for TCGAGTAGGTCACCAATGGGGCATTCAGCTTTCT ?
Solution: 3.84

Exercise: So what does the record say about PBM binding z-score for TCTTGTAGGTCAGCAGGTTAAGAAAGCTGGCCAA ?
Solution: 3.91

Exercise: So what does the record say about PBM binding z-score for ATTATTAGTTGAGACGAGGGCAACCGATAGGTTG ?
Solution: 1.48

Exercise: So what does the record say about PBM binding z-score for CGTCCAAGGTGAATGCTAGGTCAGTGAAAGCATT ?
Solution: 2.42

Exercise: So what does the record say about PBM binding z-score for GCAGACAGGTGAAACGCAGGTAACTTAGGGTGGC ?
Solution: 0.798

Exercise: So what does the record say about PBM binding z-score for CCTCGGAGGATAACAGGAGGTCAGAGCTGCCAGA ?
Solution: 1.99

Exercise: So what does the record say about PBM binding z-score for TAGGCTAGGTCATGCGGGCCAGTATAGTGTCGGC ?
Solution: 3.84

Sourced from the supplement of paper PMC6555819
